Catalogue of growth values
system: A549/ATCC NSCLC; experiment: NCI-60 one-dose screen, 48 h (100 = growth as untreated, 0 = no growth, -100 = all killed); conditions: 10 µM unless noted
The panel holds about 83,000 compounds, 20% with a hit somewhere; the sample as a whole holds those more often.
Use % as the unit, but write only the number.

Worked examples follow.
Supply measured growth of `O=S1(=O)NCCN1CCNc1nccc(-c2c(-c3cccc(O)c3)nc3sccn23)n1` in your reply. 106

Assign growth to the following record: `CCN(CC)C(=O)O/N=C(/C)c1ccccc1` 96.1

Using known records, supply growth for CC(=O)OC[C@H]1O[C@@H](n2c(=O)cc(N)[nH]c2=O)C(OC(C)=O)[C@@H]1OC(C)=O (some centres not stated) 97.7

Report growth for COc1cc(C2CC(c3cccc(Nc4ccnc5cc(Cl)ccc45)c3)=NN2C=O)cc(OC)c1OC (configuration not stated) 18.4

State its growth: `C[N+](C)(C)CCCCCCCCCC[N+](C)(C)C` 103

***
Return the recorded growth value; entry: `Cc1cc(-c2ccc(N=Nc3c(S(=O)(=O)O)cc4cc(S(=O)(=O)O)cc(O)c4c3O)c(C)c2)ccc1N=Nc1c(S(=O)(=O)O)cc2cc(S(=O)(=O)O)cc(O)c2c1O` 101

Recall and state the measured growth for `COc1ccc2nc(-c3ccc(-c4noc(-c5ccc(Cl)cc5)n4)cc3)[nH]c2c1` . 72.8

---

Parameter: growth. Scope: all listed entries.
system: UACC-62 melanoma; test: NCI-60 one-dose screen, 48 h (100 = growth as untreated, 0 = no growth, -100 = all killed); conditions: 10 µM unless noted
Compounds without any hit were thinned out: in the full panel of roughly 83,000, 20% have a hit.
# output: bare number, implied unit %

Example results:
Using the record for `O=S(=O)(Cc1ccc(Cl)cc1Cl)c1ccc(Cl)cc1` , state its measured growth. 44.6

Complete the entry with growth for `C=C1C(=O)O[C@H]2[C@H]1CC/C(COC(=O)NCc1c[nH]c3ccc(OC)cc13)=C\CC[C@@]1(C)O[C@@H]21` -31.6

Supply growth value. Item: COc1ccc(C(=O)N2N=C(c3ccc(F)cc3)CC2c2cn(-c3ccccc3)nc2-c2ccccc2)cc1 (stereo not given) 61

Using known records, supply growth for `Cc1c(C(N)=O)sc2ncn(CC(=O)NN=C3CCCCC3)c(=O)c12` 99.9

Hello, please tell me recorded growth for this one: `Nc1c(C(=O)Nc2ccccc2)sc2nc3c(cc12)C(=O)CCC3` 44.1

More entries:
Respond only with growth recorded for `C=CC(=O)N1CN(C(=O)C=C)CN(C(=O)C=C)C1` 74.3

For the compound CCN(CC)CCCC(C)Nc1ccnc2ccc(Oc3ccccc3)cc12 (stereo not given) , give its measured growth value. 31.7

Supply recorded growth for `CC(=O)Oc1ccccc1C(=O)Nc1ncc([N+](=O)[O-])s1` here. 1.31

Name the recorded growth of the item `Cc1ccc(OC2=C(C#N)C(=N)N3C(=NN2)Sc2c(C)ccc(C)c23)cc1` in your answer. 98.7

// Input: CN1C(=O)N(C)C2C1NN=c1s/c(=C\c3ccc(C(F)(F)F)cc3)c(=O)n12 (stereo not given) . Output its growth only. 26.7

---

test system: K-562 leukemia; test: NCI-60 one-dose screen, 48 h (100 = growth as untreated, 0 = no growth, -100 = all killed); settings: 10 µM unless noted
Compounds without any hit were thinned out: in the full panel of roughly 83,000, 20% have a hit.
Label rule, in plain words: growth of 30% and up is yes (1), under 30% is no (0).

Check if growth >= 30% (inclusive). Item: `Fc1ccc(-c2cnc3nonc3n2)c(F)c1` yes (1)

Further cases:
Determine whether measured growth meets or exceeds 30% for `Cc1cc(C#Cc2ccc(C(C)(C)C)cc2)ccc1-n1c(/C=C/c2c(Cl)cccc2Cl)nc2ccccc2c1=O` yes (1)

Threshold query (growth >= 30%) on `CCCCCCCCCCCCCC` yes (1)

Determine whether measured growth meets or exceeds 30% for `N=C(N)c1ccc(-c2ccc(-c3cccs3)s2)cc1F` no (0)

Threshold query (growth >= 30%) on COc1cc(C2CC(c3ccc(Cl)cc3)=NN2C(C)=O)ccc1Oc1nc2c(c(=O)n(C)c(=O)n2C)n1C (stereo unspecified) yes (1)

Exam item: decide whether the reported growth for `CN1C(=O)C(C(=O)/C=C/c2ccccc2C(=O)O)C(=O)N(C)C1=O` is at least 30%. yes (1)

Is growth for `CC(C)(c1ccccc1)c1cc(O)c(C(C)(C)c2ccccc2)cc1O` at or above 30%? no (0)

For this compound, is measured growth 30% or higher? `Nc1nc(N)c2cc(NCc3ccc(Cl)c(Cl)c3)ccc2n1` no (0)

Has `Cc1ccc(NC(=O)c2sc3nc4c(cc3c2N)C(=O)CCC4)cc1Cl` a recorded growth greater than or equal to 30%? yes (1)

Exam item: decide whether the reported growth for `Nc1nc(NC2CC2)cc(-c2cccc(Cl)c2Cl)n1` is at least 30%. no (0)

Textbook exercise: given the entry CCN1C(=O)C(C)C=C(C)C=C1C (stereo unspecified) , state whether its growth is greater than or equal to 30%. yes (1)

Is reported growth greater than or equal to 30% here: `CCN(CC)CCNC(=O)n1cc(-c2ccncc2)c(-c2cc(Cl)cc(OC)c2)n1` yes (1)

Kindly determine if growth recorded for `COc1ccc(Cl)cc1Nc1nc(C(F)(F)F)ccc1C(=O)NN` is above or exactly 30%. yes (1)

Has `C[Si](C)(C)C(c1ccccc1)c1ccccc1` a recorded growth greater than or equal to 30%? yes (1)

Confirm if growth reported for the compound `CS(=O)(=O)c1ccc(C(=O)N/N=C/c2cccc3ccccc23)cc1` is 30% or above. no (0)

Given the entry `CC(C)(CCc1ccccn1)C(=O)CCCc1ccccn1` , answer whether its growth meets or surpasses 30%. yes (1)

Confirm if growth reported for the compound `CS(=O)(=O)c1ccc(Cl)c([N+](=O)[O-])c1` is 30% or above. no (0)

Assess whether reported growth for `NC(N)=N/N=C/c1cccc(Cl)c1Cl` sits at 30% or higher. no (0)

Item `Brc1ccsc1Br` with growth of 30% or above? yes (1)

Determine whether this compound has growth no lower than 30%: O=C(c1ccccc1)C1OC1C(=O)c1ccccc1 (stereo unspecified) no (0)

Is it the case that `CCCCn1cnc2c(SCc3ccc([N+](=O)[O-])cc3)nc(N)nc21` has growth reaching or exceeding 30%? yes (1)

---

Attribute: growth
tested on: SK-MEL-5 melanoma; assay: NCI-60 one-dose screen, 48 h (100 = growth as untreated, 0 = no growth, -100 = all killed); settings: 10 µM unless noted
The panel holds about 83,000 compounds, 20% with a hit somewhere; the sample as a whole holds those more often.
Answer format: numeric, % implied, no suffix.

Worked cases, answers included:
GET growth | system: SK-MEL-5 melanoma | item: CC(C)OC1OC(OC(C)C)C(OC(C)C)OC1OC(C)C (stereo not given) 110

# return growth of `NNc1ccc(S(N)(=O)=O)cc1` (system: SK-MEL-5 melanoma) 100

// fetch growth for `Cc1ccc([C@H]2c3[nH]c4ccccc4c3C[C@H]3C(=O)N(CCCCCCC(=O)NO)CC(=O)N23)cc1` ; system: SK-MEL-5 melanoma 37.4

Give growth for COc1cc(C2CC(c3ccc(Cl)cc3)=NN2C(C)=O)ccc1Oc1nc2c(c(=O)n(C)c(=O)n2C)n1C (stereo not given) tested on SK-MEL-5 melanoma. 55.6

Report value only: growth, SK-MEL-5 melanoma, NC(=S)N1N=C(c2ccc(Cl)cc2)CC1c1cc2ccccc2[nH]c1=O (stereo not given) 107

New cases:
Report growth from SK-MEL-5 melanoma testing of COc1cc(C)c(Cl)cc1C1=NN(c2ccc(S(N)(=O)=O)cc2)C(/C=C/c2ccccc2)C1 (stereo not given) 64.9

Report growth from SK-MEL-5 melanoma testing of CC(NC(=O)c1ccccc1)C(=O)Nc1ccccc1 (stereo not given) 104

Report growth under test system SK-MEL-5 melanoma for `Clc1cc2nc(-c3ccccc3)c(-c3ccccc3)nc2cc1Cl` . 89.4

Report value: growth, system: SK-MEL-5 melanoma, compound: `CN1C2CCC1/C(=C\c1ccc(F)cc1)C(=O)/C2=C/c1ccc(F)cc1` 40.1

Lab note: SK-MEL-5 melanoma assay, enter growth for `O=C(CSc1nc2c(n1Nc1ccccc1)-c1ccccc1SC2)Nc1nccs1` here 101

---

system: HCT-15 colon; assay: NCI-60 one-dose screen, 48 h (100 = growth as untreated, 0 = no growth, -100 = all killed); conditions: 10 µM unless noted
This is part of a sample that, as a whole, favours compounds with a hit. Of some 83,000 tested, about 20% had one in any assay.
The following compounds are shown together with reported growth values.
Give the value, in units of %, as a plain number.

Quickly give me recorded growth for `Cc1ccncc1NC=O` 104

Identify the reported growth for the following entry. CC(C)CC1NC(=O)C(CC(C)C)N(CO)C1=O (stereo not drawn) 103

Read the entry `Cc1csc(N/N=C/c2ccncc2)n1` and write its reported growth. 103

Specify growth for `COc1ccc(-c2cc(C(=O)Nc3ccc(C)cc3)nc3[nH]c(=O)sc23)cc1` and stop. 63.8

Return growth for the following compound: CCOC(=O)C1=C(C)NC(=S)NC1c1ccccc1 (stereo not drawn) 104

Report growth, nothing else, for this compound: `COc1ccc(NC(=O)c2sc3c(=O)[nH]c(C(F)(F)F)nc3c2C)cc1` 104

Write down growth measured for item `CS(=O)(=O)c1ccc(Cl)c([N+](=O)[O-])c1` 99.4

Give reported growth value for CCN1C(=O)C(C)C=C(C)C=C1C (stereo not drawn) 99.9

Others:
Please supply the value of reported growth for the item CCSCC1CC(O)(c2ccccc2)C(c2ccccc2)C(c2ccc(F)cc2)O1 (stereo not drawn) 3.78

Look up growth of `Cc1ccc(NC(=O)c2sc3nc4c(cc3c2N)C(=O)CCC4)cc1Cl` and report it. 97.3
